Values from the supplement of paper PMC9262897

# Test system: E. coli TESEC Alr+ wild-type control
# assay_protocol: growth (OD600 after 10 h); higher = more growth (less inhibition)
# settings: compound 0.1 mM; raw OD600 reference: median of DMSO wells 0.241, cell-free background 0.041
Counter-ions that a name gives are not always drawn.
measurement_kind: growth
Output: the number by itself.

Query string: Complete the entry with growth for OCCOCCN1CCN(C2=Nc3ccccc3Sc3ccccc32)CC1 [Quetiapine hemifumarate]
Result string: 0.158

Query string: In one line, give reported growth of the entry Cc1ncc([N+](=O)[O-])n1CC(O)CCl (stereo not given) .
Result string: 0.233

Query string: Give recorded growth. CN(Cc1ccc(C(C)(C)C)cc1)Cc1cccc2ccccc12 [Butenafine Hydrochloride]
Result string: 0.182

Query string: Output growth of CC(C)(Oc1ccc(Cl)cc1)C(=O)O
Result string: 0.253

Query string: Tell us which growth value is on record for COc1cc(N)c(Cl)cc1C(=O)NC1CCN(CCCOc2ccc(F)cc2)CC1OC (stereo not given) [Cisapride]
Result string: 0.215

----------
# Tested on: E. coli TESEC Mtb Asd
# assay_protocol: growth (OD600 after 10 h); higher = more growth (less inhibition)
# settings: arabinose induction (level): Low; compound 0.1 mM; raw OD600 reference: median of DMSO wells 0.417, cell-free background 0.041
Counter-ions that a name gives are not always drawn.
Give measured growth for each item. Keep answers brief.
Write no unit; give the number alone.

Query string: Fill in growth for record Cc1cc(C(C)(C)C)cc(C)c1CC1=NCCN1 [Xylometazoline hydrochloride]
Result string: 0.393

Query string: Quickly give me recorded growth for C[C@H](CS)C(=O)N1CCC[C@H]1C(=O)O [Captopril]
Result string: 0.399

Query string: Could you please provide reported growth for CCCCC(=O)N(Cc1ccc(-c2ccccc2-c2nnn[nH]2)cc1)[C@H](C(=O)O)C(C)C [Valsartan] ? Thanks!
Result string: 0.396

Query string: Dear colleague, please send me the reported growth for Nc1nc(N)nc(-c2cc(Cl)ccc2Cl)n1 [Irsogladine maleate] when you can.
Result string: 0.406

----------
# System: E. coli TESEC Mtb Alr
# assay_protocol: growth (OD600 after 10 h); higher = more growth (less inhibition)
# settings: arabinose 10000 nM; compound 0.1 mM; raw OD600 reference: median of DMSO wells 0.264, cell-free background 0.041
Structures can show the parent of a compound that is named as a salt.
I'd be grateful if you could share measured growth for these entries.
Answer using only a numeral; do not append any unit.

Query string: In one line, give reported growth of the entry O=C(O)c1cccnc1Nc1cccc(C(F)(F)F)c1 .
Result string: 0.0488

Query string: Return the recorded growth value; entry: NCC[C@H](O)C(=O)N[C@@H]1C[C@H](N)[C@@H](O[C@H]2O[C@H](CN)[C@@H](O)[C@H](O)[C@H]2O)[C@H](O)[C@H]1O[C@H]1O[C@H](CO)[C@@H](O)[C@H](N)[C@H]1O [Amikacin hydrate]
Result string: 0.039

Query string: Note growth for the molecule shown: Cn1c(=O)c2nc[nH]c2n(C)c1=O [Theophylline monohydrate]
Result string: 0.283

Query string: Please report the measured growth for CC(Cc1cccc(C(F)(F)F)c1)NCCOC(=O)c1ccccc1 (stereo unspecified)
Result string: 0.163

Query string: Recall and state the measured growth for CCN(CC)CCNC(=O)c1cc(Br)c(N)cc1OC [Bromopride] .
Result string: 0.256

Query string: Look up and report measured growth for this entry: Clc1ccc(C(Cn2ccnc2)OCc2c(Cl)cccc2Cl)c(Cl)c1 (stereo unspecified)
Result string: 0.247

Query string: Recall and state the measured growth for CC(N/C(=N\C#N)Nc1ccncc1)C(C)(C)C (stereo unspecified) .
Result string: 0.257

Query string: Give growth for the following molecule: Cc1c(N(C)CS(=O)(=O)O)c(=O)n(-c2ccccc2)n1C
Result string: 0.251

Query string: Give me measured growth, please, for this molecule: Cc1ccc(NC(=O)c2ccc(CN3CCN(C)CC3)cc2)cc1Nc1nccc(-c2cccnc2)n1
Result string: 0.241

Query string: Indicate the recorded growth value for this molecule: Fc1ccc(C(c2ccc(F)cc2)N2CCN(C/C=C/c3ccccc3)CC2)cc1 [Flunarizine dihydrochloride]
Result string: 0.0787

Query string: Give the reported growth for this molecule. CCCCCCCCNC(C)C(O)c1ccc(SC(C)C)cc1 (stereo unspecified)
Result string: 0.0405

----------
Give measured growth for each item. Keep answers brief.
# System: E. coli TESEC Mtb Asd
# assay_protocol: growth (OD600 after 10 h); higher = more growth (less inhibition)
# settings: arabinose induction (level): Low; compound 0.1 mM; raw OD600 reference: median of DMSO wells 0.417, cell-free background 0.041
Just the number, please, no unit after it.

Query string: Tell me measured growth for C[C@]12CCC(=O)C=C1CC[C@@H]1[C@@H]2[C@@H](O)C[C@@]2(C)[C@H]1CC[C@]2(O)C(=O)CO [Hydrocortisone base] please.
Result string: 0.307

Query string: Query growth for CC(C)Oc1ccc2c(=O)c(-c3ccccc3)coc2c1
Result string: 0.4

Query string: Give the reported growth for this compound. NCC[C@H](O)C(=O)N[C@@H]1C[C@H](N)[C@@H](O[C@H]2O[C@H](CN)[C@@H](O)[C@H](O)[C@H]2O)[C@H](O)[C@H]1O[C@H]1O[C@H](CO)[C@@H](O)[C@H](N)[C@H]1O [Amikacin hydrate]
Result string: 0.0485

Query string: Indicate its recorded growth; the compound in question is NC(=O)N/N=C/c1ccc([N+](=O)[O-])o1
Result string: 0.0756

Query string: Answer with the recorded growth of CN(C)CCOc1ccc(/C(=C(/CCCl)c2ccccc2)c2ccccc2)cc1 only.
Result string: 0.057

----------
# System: E. coli TESEC Mtb Alr
# assay_protocol: growth (OD600 after 10 h); higher = more growth (less inhibition)
# settings: arabinose 1000000 nM; compound 0.1 mM; raw OD600 reference: median of DMSO wells 0.193, cell-free background 0.041
Structures can show the parent of a compound that is named as a salt.
Provide the reported growth of each item.
Returns: the value as a bare number; no unit string appended.

Query string: Give the value of growth reported for the following: NCCc1c[nH]cn1 [Histamine dihydrochloride]
Result string: 0.192

Query string: Return the recorded growth value; entry: CC[C@@H](CO)NCCN[C@@H](CC)CO [Ethambutol dihydrochloride]
Result string: 0.18

Query string: Item CCN1C(=O)NC(c2ccccc2)C1=O (stereo not drawn) : provide growth
Result string: 0.187

Query string: Consider the compound CCCNC(C)C(=O)Nc1ccccc1C (stereo not drawn) [Prilocaine hydrochloride] . State its measured growth.
Result string: 0.167

Query string: Tell me its growth given CCOc1cc(CC(=O)N[C@@H](CC(C)C)c2ccccc2N2CCCCC2)ccc1C(=O)O [Repaglinide] as the entry.
Result string: 0.174

Query string: Look up growth of C#Cc1cccc(Nc2ncnc3cc(OCCOC)c(OCCOC)cc23)c1 and report it.
Result string: 0.146

Query string: Using the record for Nc1nc(N)c2nc(-c3ccccc3)c(N)nc2n1 , state its measured growth.
Result string: 0.0711

Query string: Determine its reported growth: CC1(C)[C@@H](OC(=O)CCC(=O)O)CC[C@]2(C)[C@H]3C(=O)C=C4[C@@H]5C[C@@](C)(C(=O)O)CC[C@]5(C)CC[C@@]4(C)[C@]3(C)CC[C@@H]12 [Carbenoxolone disodium salt]
Result string: 0.213

----------
# Test system: E. coli TESEC Alr+ wild-type control
# assay_protocol: growth (OD600 after 10 h); higher = more growth (less inhibition)
# settings: compound 0.1 mM; raw OD600 reference: median of DMSO wells 0.49, cell-free background 0.052
Where a name gives a salt, the structure may show the parent alone.
measurement_kind: growth
Kindly provide the number alone.

Query string: Let me know recorded growth for CN1CCN(C2=Nc3cc(Cl)ccc3Nc3ccccc32)CC1 , thanks.
Result string: 0.502

Query string: Answer with the recorded growth for the compound listed here: CC(=O)CC(c1ccc([N+](=O)[O-])cc1)c1c(O)c2ccccc2oc1=O (centres undefined)
Result string: 0.503

Query string: Report growth for Nc1ccc(S(=O)(=O)c2ccc(N)cc2)cc1
Result string: 0.491

Query string: Determine its reported growth: c1ccc(CN(CC2=NCCN2)c2ccccc2)cc1 [Antazoline hydrochloride]
Result string: 0.5

----------
# Test system: E. coli TESEC Mtb DapB
# assay_protocol: growth (OD600 after 10 h); higher = more growth (less inhibition)
# settings: arabinose induction (level): High; compound 0.1 mM; raw OD600 reference: median of DMSO wells […], cell-free background 0.041
Counter-ions that a name gives are not always drawn.
measurement_kind: growth
# respond with the number and nothing more

Query string: Determine its reported growth: Nc1ccc(O)c(C(=O)O)c1
Result string: 0.195

Query string: Determine its reported growth: CCN(CC)CC(=O)Nc1c(C)cccc1C [Lidocaine hydrochloride]
Result string: 0.204

Query string: // fetch growth given entry Nc1ccc(/N=N/c2ccccc2)c(N)n1 [Phenazopyridine hydrochloride]
Result string: 0.196

Query string: For the molecule CN(C)CCCO[C@@H]1[C@H]2OC(C)(C)O[C@H]2O[C@@H]1[C@H](O)CO [Amiprilose hydrochloride] , report growth.
Result string: 0.199
